system: SF-539 CNS; assay: NCI tumour cell line growth inhibition, 48 h; in the data active means GI50 below about 0.43 µM; inactive means the rest
Give one outcome, nothing more. List: T = active, F = inactive

molecule	discrete.label
CNC(=O)c1ccccc1Nc1cc(Nc2ccc(N3CCOCC3)cc2OC)ncc1C(F)(F)F	F
CC[N+](CC)=c1cc2oc3cc(N(C)C)ccc3nc-2cc1C	T
O=C(Cc1n[nH]c(=O)c2ccccc12)OCc1c(Cl)cccc1Cl	F
C[C@]12CC[C@@H]3c4ccc(O)cc4CC[C@H]3[C@@H]1CC[C@@H]2NS(=O)(=O)c1ccc(Cl)cc1	F
COc1cccc2c1C(=O)c1c(O)c3c(c(O)c1C2=O)C[C@@](O)(C(=O)CO)C[C@@H]3OC1CC2C(OCN3CN2COC2C(C)OC(O[C@H]4C[C@](O)(C(=O)CO)Cc5c(O)c6c(c(O)c54)C(=O)c4c(OC)cccc4C6=O)CC23)C(C)O1 (stereo partly drawn)	T

Problem: Given O=C(c1ccco1)c1nc2ccc(Cl)cc2[n+]([O-])c1C(F)(F)F , state the outcome it received in this test.
Result: F

Problem: Per the assay record, what outcome was assigned to Clc1ccc(C(Cn2ccnc2)OCc2ccsc2Cl)c(Cl)c1 (stereo not drawn) ?
Result: F

Problem: Answer briefly: the call reported for COc1ccc2cc(C#Cc3ccc(-n4c(/C=C/c5cc(OC)c(OC)c(OC)c5)nc5ccccc5c4=O)c(C)c3)ccc2c1 in this assay.
Result: F

###

system: MOLT-4 leukemia; test: NCI tumour cell line growth inhibition, 48 h
readout.type: TGI

Below, 3 compounds whose answers are already recorded.
compound	TGI
Cc1ccccc1OC(C)C(=O)NN1C(=O)CC(=O)NC1=S (centres undefined)	> 100 µM
COC(c1ccccc1)C(c1ccccc1)N1CCOCC1 (centres undefined)	> 100 µM
Cn1c(=O)c2c(nc3n(Cc4ccccc4)c(=O)c(Br)cn23)n(C)c1=O	> 100 µM

API: the following record is the query input.
Problem: Item: Clc1ccc2c(N3CCN(c4ccnc(NC5CCCCC5)n4)CC3)ccnc2c1 Test system: MOLT-4 leukemia Read-out: TGI Value: ?
Result: 5.47 µM

###

system: NCI-H23 lung; test: NCI tumour cell line growth inhibition, 48 h
Overview of recorded TGI for various compounds

Illustrative cases are given below, each with its answer.
compound	TGI
O=c1cc(-c2ccc3ccccc3c2)[nH]c2ncc(Cl)cc12	57 µM
CC(C)(C)OC(=O)C1CCC/C1=N/Nc1ccc([N+](=O)[O-])cc1[N+](=O)[O-] (stereo not given)	63.5 µM
O=C(Nc1ccc(Cl)cc1)c1cc2c(cc1Cl)SC(NNCCO)=NS2(=O)=O	> 100 µM

Problem: Recorded TGI of CC(C)(C)COC1C2(OCCO2)C2CCC1(C)C2(C)C (stereo not given) , please.
Result: > 100 µM

Problem: So what does the record say about TGI for CCC(=O)Nc1ccc(NCC(=O)Nc2ccc(Cl)cc2)cc1 ?
Result: 38.9 µM

Problem: Please look up its TGI: Cc1ccccc1OC(C)C(=O)NN1C(=O)CC(=O)NC1=S (stereo not given)
Result: > 100 µM

Problem: Which TGI reading was recorded for the compound Clc1ccc(-c2nnc3c4nnc(-c5ccc(Cl)cc5Cl)n4c4ccccc4n23)c(Cl)c1 ?
Result: > 100 µM

Problem: Give its TGI value. Item: CN(C)CCn1c(=O)c2ccc(NCCCN(C)CCCNc3ccc4c(=O)n(CCN(C)C)c(=O)n5c6ccccc6c(=O)c3c45)c3c(=O)c4ccccc4n(c1=O)c23
Result: 0.546 µM

Problem: // returns reported TGI for input Cc1cc(OCC(=O)O)c(Cl)cc1Cl
Result: > 100 µM

Problem: Looking for the measured TGI of CCC[CH2][Sn]1([CH2]CCC)[O]CC(CN2CCCCC2)[O]1 (stereo not given) , can you help?
Result: 0.343 µM

Problem: Dear colleague, I am looking for the recorded TGI of the following compound: O=C(C[n+]1cccc2cc(Cl)ccc21)c1ccc2c(c1)CCCC2
Result: 4.44 µM

Problem: Which value of TGI has been reported for CN[C@@H](C)C(=O)N[C@H]1CCS[C@H]2CC(C)(C)[C@@H](C(=O)N[C@H]3c4ccccc4C[C@H]3OCC#CC#CCO[C@@H]3Cc4ccccc4[C@@H]3NC(=O)[C@H]3N4C(=O)[C@@H](NC(=O)[C@H](C)NC)CCS[C@H]4CC3(C)C)N2C1=O in the records?
Result: > 50 µM

Problem: # lookup: TGI of Cc1ccc(C(=O)N/N=C(\N=Nc2cccc([N+](=O)[O-])c2)c2ccc(N(C)C)cc2)cc1
Result: > 100 µM

Problem: Look up TGI: CSc1nc(-c2cc3ccccc3o2)cc(-c2ccc(Cl)cc2)c1C#N
Result: > 100 µM

Problem: Please give the measured TGI for this compound: CCOC(=O)C1=C(C)NC(=O)NC1c1ccc(N(CCCl)CCCl)cc1Cl (stereo not given)
Result: 32.7 µM

Problem: GET /values?readout=TGI&item= Cc1ccc(N=C2SC(=S)N(CCC[N+](C)(C)C)C2=Nc2ccc(C)cc2)cc1
Result: 32.7 µM

Problem: Record request: TGI value, item CCNCCCNc1c2ccccc2nc2ccccc12
Result: 2.14 µM

Problem: Given c1ccc2c(c1)nnn2CN1CCOCC1 , state its recorded TGI.
Result: > 100 µM
